biological target: Cholesteryl ester transfer protein (Oryctolagus cuniculus, UniProt P22687); test: Inhibition of CETP in rabbit serum after 1 hr by fluorescent cholesteryl esters transfer assay; details: read-out: IC50
pIC50: −log10 of the molar value.
Could you please report measured pIC50 for the items listed next?

pIC50 of OC(CN(Cc1ccccc1C(F)(F)F)c1cccc(F)c1)C(F)(F)F (stereo not drawn) on Cholesteryl ester transfer protein (Oryctolagus cuniculus, UniProt P22687)?
< 4.00

Do the same for OC(Cc1ccccc1)CN(Cc1cccc(OC(F)(F)F)c1)c1ccccc1Oc1ccccc1 (stereo not drawn) please
< 4.30

Okay, and Cc1cccc(CN(CC(O)C(F)(F)F)c2cccc(F)c2)c1 (stereo not drawn) ?
< 4.00

----------
target: Cholesteryl ester transfer protein (Oryctolagus cuniculus, UniProt P22687); assay: Inhibition of CETP in rabbit serum after 1 hr by fluorescent cholesteryl esters transfer assay; conditions: read-out: IC50
recorded_endpoint: pIC50
Reminder that pIC50 is minus the log10 of a molar concentration.

# lookup: pIC50 of OC(CN(Cc1cccc(-c2cccs2)c1)c1cccc(Oc2ccccc2)c1)C(F)(F)F (centres undefined)
5.95

Moving on to the next compound: OC(CN(Cc1cccc(OC(F)(F)C(F)F)c1)c1cccc(OCc2cccc(C(F)(F)F)c2)c1)C(F)(F)F (centres undefined)
7.05

// same read-out, input: OC(CN(Cc1cccc(OC(F)(F)C(F)F)c1)c1cccc(Oc2ccc(Cl)cc2)c1)C(F)(F)F (centres undefined)
6.52

Please do the same for OC(CN(Cc1cccc(OC(F)(F)C(F)F)c1)c1cccc(Oc2cccc(F)c2)c1)C(F)(F)F (centres undefined) as well.
6.52

----------
target: UniProtKB P22687; assay: Inhibition of CETP in rabbit serum at 10 uM after 1 hr by fluorescent cholesteryl esters transfer assay
Assign class by inhibition: not lower than 20% means Fulfilled; lower than 20% means Not fulfilled.

Given CCN(CC)c1ccc(Nc2ccc(CC(=O)c3ccccc3)cc2)cc1 , state whether its inhibition is at least 20%.
Fulfilled

Entry COc1cccc(/C=N/c2ccc(C(=O)c3ccc(OC)cc3OC)cc2)c1 please
Fulfilled

And O=C(c1ccccc1)c1ccccc1NCC(O)COc1ccc(Cl)cc1 (stereo not given) ?
Not fulfilled

Then this compound: COc1ccc(OCCCn2cc(-c3ccc(Cl)c(Cl)c3)c(=N)[nH]c2=O)cc1
Not fulfilled

Do the same for O=C(Nc1ccc(Cl)c(Cl)c1)OCC(Cl)COc1ccc(Cl)cc1 (stereo not given) please
Not fulfilled

CCOc1ccc(/N=C/c2ccc(O)c(OC)c2)c(O)c1 ?
Fulfilled

Please do the same for COc1ccc(C(=O)c2ccc(/N=C/c3ccc(C(F)(F)F)cc3)cc2)c(OC)c1 as well.
Not fulfilled

Ok, now Cc1ccc(S(=O)(=O)Nc2cccc3c(NS(=O)(=O)c4ccc(C)cc4)cccc23)cc1
Not fulfilled

Further, for C[C@]12CC[C@@H]3c4ccc(O)cc4C[C@@H](CCCCCCCCC[S+]([O-])CCCC(F)(F)C(F)(F)F)[C@H]3[C@@H]1CC[C@@H]2O (stereo not given in full) ?
Not fulfilled

Input COc1ccc(CCN2CCC(Nc3nc4ccccc4n3Cc3ccc(F)cc3)CC2)cc1
Fulfilled

Also check O=C(Nc1ccc2c(c1)CCC2)c1ccc(C(=O)Nc2ccc3c(c2)CCC3)cc1
Not fulfilled

Same question for O=C(COc1cccc(Cl)c1)Nc1cccc(CN2C(=O)c3ccccc3C2=O)c1 please.
Not fulfilled

Now consider CCN(CC)Cc1cc(Nc2ccnc3cc(Cl)ccc23)ccc1O and answer again.
Not fulfilled

Follow-up entry: N=C(Nc1cccc2ccccc12)SCCCSC(=N)Nc1cccc2ccccc12
Not fulfilled

Now consider O=C(Nc1ccc(Cl)cc1C(F)(F)F)Oc1ccc(OCc2ccccc2)cc1 and answer again.
Fulfilled

And what about the compound O=C(c1ccccc1)c1cc(Cl)ccc1NCC(O)COc1ccc(Cl)cc1 (stereo not given) ?
Not fulfilled

Continue with N=c1[nH]c(=O)n(CCCOc2cccc(Cl)c2)cc1-c1ccc(Cl)c(Cl)c1
Not fulfilled

Field entry: O=C(NCCCOc1ccc(Cl)c(Cl)c1)NCCc1ccc(Cl)c(Cl)c1
Not fulfilled

Okay, and CCCCCCCCOC(=O)c1ccc2c(c1)Nc1cc3ccccc3cc1N2 ?
Fulfilled

Same question for OCc1cc(C(O)CNCCCCCCOCCCCc2ccccc2)ccc1O (stereo not given) please.
Fulfilled

What do we get for O=S(=O)(Nc1ccc(CSc2ccc(Cl)cc2)cc1)c1ccccc1 ?
Fulfilled

// same read-out, input: CCOc1cc(C2SCC(=O)N2c2ccc(Oc3ccc(Cl)cc3)c(Cl)c2)ccc1O (stereo not given)
Not fulfilled

Now consider Cc1cc2c(cc1C)NC1=C(O)C(c3c[nH]c4ccc(COc5ccccc5)cc34)OC1=N2 (stereo not given) .
Not fulfilled

What about CCCNCC(O)COc1ccccc1C(=O)CCc1ccccc1 (stereo not given) ?
Not fulfilled

Another compound to look at: CCSc1nc2ccc(/N=C\c3ccc(NS(=O)(=O)c4ccccc4)cc3O)cc2s1
Not fulfilled

Here is the next compound: CN(CN(C)/N=C\c1ccc(Cl)cc1)/N=C\c1ccc(Cl)cc1
Not fulfilled

What do we get for Clc1ccc2c(NCCCC/N=C/c3ccccc3)cccc2c1 ?
Not fulfilled

Further, for O=C(Nc1ccc(Br)cc1)N1CCN(C(=O)Nc2ccc(Br)cc2)CC1 ?
Not fulfilled

Next: CCCCOc1ccc2nccc(N/N=C/c3ccc(OC)c4ccccc34)c2c1
Fulfilled

Same read-out for O=C(NC(=O)c1c(F)cccc1F)Nc1ccc(Cl)c(Oc2ncc(C(F)(F)F)cc2Cl)c1 ?
Not fulfilled

Further, for CC(C)(C(=O)O)c1ccc(C(O)CCCN2CCC(C(O)(c3ccccc3)c3ccccc3)CC2)cc1 (stereo not given) ?
Not fulfilled

Same question for CC(C)C[C@H]1C(=O)N2CCC[C@H]2[C@]2(O)O[C@](NC(=O)[C@@H]3C=C4c5cccc6[nH]c(Br)c(c56)C[C@H]4N(C)C3)(C(C)C)C(=O)N12 please.
Not fulfilled

----------
biological target: Cholesteryl ester transfer protein (Oryctolagus cuniculus) (UniProt P22687); assay: Inhibition of CETP in rabbit serum at 10 uM after 1 hr by fluorescent cholesteryl esters transfer assay
Sequence (P22687 whole entry): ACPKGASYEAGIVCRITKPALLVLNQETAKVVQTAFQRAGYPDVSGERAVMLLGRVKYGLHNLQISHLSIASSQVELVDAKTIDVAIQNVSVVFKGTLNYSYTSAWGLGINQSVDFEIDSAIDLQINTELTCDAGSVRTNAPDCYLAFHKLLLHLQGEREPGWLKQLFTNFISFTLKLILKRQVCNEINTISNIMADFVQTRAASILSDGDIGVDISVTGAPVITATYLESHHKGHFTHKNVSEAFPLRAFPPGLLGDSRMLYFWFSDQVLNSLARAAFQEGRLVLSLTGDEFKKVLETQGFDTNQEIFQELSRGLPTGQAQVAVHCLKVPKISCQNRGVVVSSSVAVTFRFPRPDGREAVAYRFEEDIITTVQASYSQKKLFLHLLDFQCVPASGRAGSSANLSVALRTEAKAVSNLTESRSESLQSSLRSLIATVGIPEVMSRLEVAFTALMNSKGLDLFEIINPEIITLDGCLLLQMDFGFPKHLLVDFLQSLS
recorded_endpoint: inhibition (%)
Report only the number, with the unit % understood.

Requested read-out: inhibition. Entry: COc1ccc(/C=N/c2ccc(C(=O)c3ccccc3)cc2)cc1
19.9

Now give it for COc1ccc(/C=N/c2ccc(C(=O)c3ccc(OC)cc3OC)cc2)cc1 too.
19.5

Now consider CCN(CC)CCC(=O)c1ccc(Nc2ccnc3cc(Cl)ccc23)cc1 .
20.3
